PROTOCOL: Inhibition of human FTase
Rule: measured IC50 below 30 nM gets criterion met; anything equal to or greater than 30 nM gets criterion not met.

[
  {
    "COMPOUND": "CCc1ccccc1[C@H]1CCN(Cc2cccnc2)[C@@H](c2ccc(O)c(NS(C)(=O)=O)c2)[C@@H]1[N+](=O)[O-] (racemic)",
    "LABEL_VALUE": "criterion met"
  },
  {
    "COMPOUND": "CCc1ccccc1[C@@H]1CCN(Cc2cccnc2)[C@@H](c2ccccc2)[C@H]1C(=O)OC (racemic)",
    "LABEL_VALUE": "criterion not met"
  },
  {
    "COMPOUND": "CCS(=O)(=O)Nc1cc([C@H]2[C@H]([N+](=O)[O-])[C@@H](c3ccccc3Br)CCN2Cc2cccnc2)ccc1O (racemic)",
    "LABEL_VALUE": "criterion met"
  },
  {
    "COMPOUND": "O=[N+]([O-])c1cc([C@@H]2[C@@H]([N+](=O)[O-])[C@H](c3ccccc3Br)CCN2Cc2cccnc2)ccc1O (racemic)",
    "LABEL_VALUE": "criterion not met"
  },
  {
    "COMPOUND": "COC(=O)Nc1cc([C@H]2[C@H]([N+](=O)[O-])[C@@H](c3ccccc3Br)CCN2Cc2cccnc2)ccc1O (racemic)",
    "LABEL_VALUE": "criterion met"
  },
  {
    "COMPOUND": "CCc1ccccc1[C@@H]1CCN(Cc2cccnc2)[C@H](c2ccc(O)c(N)c2)[C@H]1[N+](=O)[O-] (racemic)",
    "LABEL_VALUE": "criterion not met"
  },
  {
    "COMPOUND": "O=[N+]([O-])[C@@H]1[C@@H](c2ccccc2)N(Cc2cccnc2)CC[C@H]1c1ccccc1Br (racemic)",
    "LABEL_VALUE": "criterion met"
  },
  {
    "COMPOUND": "CC(=O)Nc1cc([C@H]2[C@H]([N+](=O)[O-])[C@@H](c3ccccc3Br)CCN2Cc2cccnc2)ccc1O (racemic)",
    "LABEL_VALUE": "criterion met"
  },
  {
    "COMPOUND": "O=[N+]([O-])[C@@H]1[C@@H](c2ccc(O)c(O)c2)N(Cc2cccnc2)CC[C@H]1c1ccccc1Br (racemic)",
    "LABEL_VALUE": "criterion met"
  },
  {
    "COMPOUND": "CCc1ccccc1[C@@H]1CCN(Cc2cccnc2)[C@@H](c2ccccc2)[C@H]1C(=O)NC (racemic)",
    "LABEL_VALUE": "criterion not met"
  },
  {
    "COMPOUND": "O=[N+]([O-])[C@@H]1[C@@H](c2ccc(O)cc2)N(Cc2cccnc2)CC[C@H]1c1ccccc1Br (racemic)",
    "LABEL_VALUE": "criterion met"
  },
  {
    "COMPOUND": "Cn1cnc(CN2CC[C@@H](c3ccccc3Br)[C@H]([N+](=O)[O-])[C@H]2c2ccccc2)c1 (racemic)",
    "LABEL_VALUE": "criterion not met"
  },
  {
    "COMPOUND": "Cc1ccc(S(=O)(=O)Nc2cc([C@H]3[C@H]([N+](=O)[O-])[C@@H](c4ccccc4Br)CCN3Cc3cccnc3)ccc2O)cc1 (racemic)",
    "LABEL_VALUE": "criterion not met"
  }
]
